TARGET: endogenous Gce in Drosophila S2 cells (JHRE-luc) (Drosophila melanogaster)
Construct: endogenous Gce of S2 cells, transfected D. melanogaster Tai and JHRE-luc reporter
Sequence (Q9VXW7 271-959 limits assumed): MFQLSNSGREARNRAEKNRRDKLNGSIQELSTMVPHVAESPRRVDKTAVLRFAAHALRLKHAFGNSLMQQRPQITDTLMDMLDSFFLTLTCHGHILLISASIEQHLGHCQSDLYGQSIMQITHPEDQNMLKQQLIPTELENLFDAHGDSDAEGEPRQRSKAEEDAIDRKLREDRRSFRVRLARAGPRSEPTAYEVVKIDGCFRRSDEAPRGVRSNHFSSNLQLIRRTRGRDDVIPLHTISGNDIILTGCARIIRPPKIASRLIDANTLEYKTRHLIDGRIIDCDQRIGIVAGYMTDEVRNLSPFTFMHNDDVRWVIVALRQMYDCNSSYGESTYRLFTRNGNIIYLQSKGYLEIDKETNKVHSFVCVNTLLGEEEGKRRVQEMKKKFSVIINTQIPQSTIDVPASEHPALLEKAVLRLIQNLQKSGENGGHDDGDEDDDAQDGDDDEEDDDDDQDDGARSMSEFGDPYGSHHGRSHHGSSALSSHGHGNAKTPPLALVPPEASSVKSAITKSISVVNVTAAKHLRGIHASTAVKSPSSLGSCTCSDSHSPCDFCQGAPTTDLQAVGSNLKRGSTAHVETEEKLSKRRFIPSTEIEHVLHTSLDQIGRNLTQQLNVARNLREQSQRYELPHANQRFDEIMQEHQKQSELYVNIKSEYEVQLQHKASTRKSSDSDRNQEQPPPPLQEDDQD
Sequence (Q9VLD9 1-2026 partner): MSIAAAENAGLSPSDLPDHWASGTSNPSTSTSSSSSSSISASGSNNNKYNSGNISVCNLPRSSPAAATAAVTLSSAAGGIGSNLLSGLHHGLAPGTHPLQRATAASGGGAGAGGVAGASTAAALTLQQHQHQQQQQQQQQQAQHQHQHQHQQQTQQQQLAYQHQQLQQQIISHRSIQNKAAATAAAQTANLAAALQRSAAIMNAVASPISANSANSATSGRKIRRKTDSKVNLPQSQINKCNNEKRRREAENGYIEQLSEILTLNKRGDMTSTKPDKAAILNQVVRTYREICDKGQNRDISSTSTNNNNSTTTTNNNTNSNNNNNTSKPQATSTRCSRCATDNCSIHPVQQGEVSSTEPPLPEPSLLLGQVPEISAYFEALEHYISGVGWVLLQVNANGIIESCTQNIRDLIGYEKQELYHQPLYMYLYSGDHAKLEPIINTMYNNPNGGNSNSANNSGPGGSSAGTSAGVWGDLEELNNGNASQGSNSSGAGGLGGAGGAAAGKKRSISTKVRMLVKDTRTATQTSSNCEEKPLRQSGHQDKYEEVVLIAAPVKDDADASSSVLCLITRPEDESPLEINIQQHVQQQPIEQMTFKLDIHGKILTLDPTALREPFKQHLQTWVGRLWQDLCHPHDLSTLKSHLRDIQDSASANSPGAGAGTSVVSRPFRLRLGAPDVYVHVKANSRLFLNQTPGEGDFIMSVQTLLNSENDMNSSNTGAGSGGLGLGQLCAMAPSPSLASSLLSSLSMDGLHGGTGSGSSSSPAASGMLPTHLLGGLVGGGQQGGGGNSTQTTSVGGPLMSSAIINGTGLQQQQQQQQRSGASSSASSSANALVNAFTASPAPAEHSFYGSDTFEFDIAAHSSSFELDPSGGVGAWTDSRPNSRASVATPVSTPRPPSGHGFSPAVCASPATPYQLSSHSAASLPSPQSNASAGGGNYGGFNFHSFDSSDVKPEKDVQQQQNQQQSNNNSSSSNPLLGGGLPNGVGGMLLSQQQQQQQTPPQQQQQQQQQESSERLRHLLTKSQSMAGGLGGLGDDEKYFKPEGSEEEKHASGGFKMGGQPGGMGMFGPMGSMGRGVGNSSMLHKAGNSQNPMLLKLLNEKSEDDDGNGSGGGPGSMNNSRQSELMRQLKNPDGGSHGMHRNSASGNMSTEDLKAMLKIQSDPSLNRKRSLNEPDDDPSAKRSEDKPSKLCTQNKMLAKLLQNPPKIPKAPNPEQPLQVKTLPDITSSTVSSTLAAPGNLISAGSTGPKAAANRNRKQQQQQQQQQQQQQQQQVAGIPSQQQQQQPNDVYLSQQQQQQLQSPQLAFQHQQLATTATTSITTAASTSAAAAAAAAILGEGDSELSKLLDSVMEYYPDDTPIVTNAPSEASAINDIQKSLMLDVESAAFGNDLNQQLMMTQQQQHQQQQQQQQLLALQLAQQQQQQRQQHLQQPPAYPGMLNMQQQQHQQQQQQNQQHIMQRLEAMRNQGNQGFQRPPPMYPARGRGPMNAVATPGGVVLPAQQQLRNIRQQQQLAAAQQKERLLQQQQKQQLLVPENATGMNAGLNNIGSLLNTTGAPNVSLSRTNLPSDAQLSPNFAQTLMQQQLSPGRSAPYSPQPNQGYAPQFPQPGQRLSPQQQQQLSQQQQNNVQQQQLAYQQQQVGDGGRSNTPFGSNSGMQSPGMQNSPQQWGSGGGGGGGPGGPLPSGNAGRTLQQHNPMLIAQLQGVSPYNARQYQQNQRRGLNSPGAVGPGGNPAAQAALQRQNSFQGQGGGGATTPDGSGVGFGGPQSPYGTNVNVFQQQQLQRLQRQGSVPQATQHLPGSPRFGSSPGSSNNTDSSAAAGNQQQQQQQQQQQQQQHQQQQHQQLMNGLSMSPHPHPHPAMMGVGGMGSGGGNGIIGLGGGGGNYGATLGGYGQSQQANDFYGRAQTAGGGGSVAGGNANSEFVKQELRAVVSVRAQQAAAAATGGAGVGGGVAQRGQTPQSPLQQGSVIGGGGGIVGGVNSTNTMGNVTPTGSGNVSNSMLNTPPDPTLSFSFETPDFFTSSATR
MEASUREMENT NOTES: JHRE-luc reporter activation in S2 cells
Assay type: cell-based
RUN CONDITIONS: 8 h, transfected Tai; agonist; read-out: EC50
MEASURED PARAMETER: EC50 (nM)

Reference set, count: 3
>  <COMPOUND>
COC(=O)/C=C(\C)CCC1OC1(C)CCC1OC1(C)C (stereo not drawn) [JHB3]

>  <UNIT SPEC>
nM

>  <RECORDED RESULT>
110

$$$$
>  <COMPOUND>
CCOC(=O)NCCOc1ccc(CC2CCCCC2O)cc1 (stereo not drawn) [W330]

>  <UNIT SPEC>
nM

>  <RECORDED RESULT>
5.42

$$$$
>  <COMPOUND>
CC/C(=C\CC/C(C)=C/C(=O)OC)CC[C@H]1O[C@@]1(C)CC [S-(E,E)-JH I]

>  <UNIT SPEC>
nM

>  <RECORDED RESULT>
370

$$$$

(A) COC(=O)/C=C(\C)CC/C=C(\C)CC[C@H]1OC1(C)C [R-JH III]
(B) CCOC(=O)NCCOc1ccc(Oc2ccccc2)cc1 [fenoxycarb]
stdin: // compare: A vs B , metric EC50, want the smaller Lab note: record the label of whichever item you select.
stdout: B
(B: 2.29 nM, A: 930 nM)

// provenance: paper PMC6333893
